Molecular target: Pim2 kinase (Homo sapiens)
Experiment: Pim2 ATP depletion assay
Format: biochemical
Conditions: read-out: IC50 (μM) PIM2
quantity_kind: IC50

>>> print(df.to_string())
                                   compound  measured
0  NC1CC(CO)CN(c2ccncc2NC(=O)c2ccc(F)c(-c3ccccc3F)n2)C1 (centres unmarked)    < 1 µM

Problem: Fill in reported IC50 for this entry: COc1ncccc1-c1nc(C(=O)Nc2cnccc2N2CCC[C@H](N)C2)c(N)cc1F
Solution: < 1 µM

Problem: Fill in reported IC50 for this entry: Nc1ncc(-c2ccccc2)nc1C(=O)Nc1cc(C(=O)c2ccccc2)ccc1N1CCC(N)CC1
Solution: > 25 µM

Problem: Fill in reported IC50 for this entry: Nc1cc(-c2ccccc2)cnc1C(=O)Nc1cnccc1N1CCC[C@H](N)C1
Solution: < 1 µM

Problem: Fill in reported IC50 for this entry: Cc1ccsc1-c1ccc(N)c(C(=O)Nc2cnccc2N2CCC[C@H](N)C2)n1
Solution: < 1 µM

Problem: Fill in reported IC50 for this entry: Nc1ccc(-c2cccc(Cl)c2F)nc1C(=O)Nc1cnccc1N1CCC[C@H](N)C1
Solution: < 1 µM

Problem: Fill in reported IC50 for this entry: Cc1cc(F)ccc1-c1ccc(N)c(C(=O)Nc2cnccc2N2CCC[C@H](N)C2)n1
Solution: < 1 µM

Problem: Fill in reported IC50 for this entry: COc1ccccc1-c1cnc(N)c(C(=O)Nc2cnccc2N2CCCC(N)C2)n1 (centres unmarked)
Solution: < 1 µM

* * *

Attribute: IC50
Molecular target: KDR kinase (Homo sapiens, UniProt P35968)
Sequence (P35968 20-1356): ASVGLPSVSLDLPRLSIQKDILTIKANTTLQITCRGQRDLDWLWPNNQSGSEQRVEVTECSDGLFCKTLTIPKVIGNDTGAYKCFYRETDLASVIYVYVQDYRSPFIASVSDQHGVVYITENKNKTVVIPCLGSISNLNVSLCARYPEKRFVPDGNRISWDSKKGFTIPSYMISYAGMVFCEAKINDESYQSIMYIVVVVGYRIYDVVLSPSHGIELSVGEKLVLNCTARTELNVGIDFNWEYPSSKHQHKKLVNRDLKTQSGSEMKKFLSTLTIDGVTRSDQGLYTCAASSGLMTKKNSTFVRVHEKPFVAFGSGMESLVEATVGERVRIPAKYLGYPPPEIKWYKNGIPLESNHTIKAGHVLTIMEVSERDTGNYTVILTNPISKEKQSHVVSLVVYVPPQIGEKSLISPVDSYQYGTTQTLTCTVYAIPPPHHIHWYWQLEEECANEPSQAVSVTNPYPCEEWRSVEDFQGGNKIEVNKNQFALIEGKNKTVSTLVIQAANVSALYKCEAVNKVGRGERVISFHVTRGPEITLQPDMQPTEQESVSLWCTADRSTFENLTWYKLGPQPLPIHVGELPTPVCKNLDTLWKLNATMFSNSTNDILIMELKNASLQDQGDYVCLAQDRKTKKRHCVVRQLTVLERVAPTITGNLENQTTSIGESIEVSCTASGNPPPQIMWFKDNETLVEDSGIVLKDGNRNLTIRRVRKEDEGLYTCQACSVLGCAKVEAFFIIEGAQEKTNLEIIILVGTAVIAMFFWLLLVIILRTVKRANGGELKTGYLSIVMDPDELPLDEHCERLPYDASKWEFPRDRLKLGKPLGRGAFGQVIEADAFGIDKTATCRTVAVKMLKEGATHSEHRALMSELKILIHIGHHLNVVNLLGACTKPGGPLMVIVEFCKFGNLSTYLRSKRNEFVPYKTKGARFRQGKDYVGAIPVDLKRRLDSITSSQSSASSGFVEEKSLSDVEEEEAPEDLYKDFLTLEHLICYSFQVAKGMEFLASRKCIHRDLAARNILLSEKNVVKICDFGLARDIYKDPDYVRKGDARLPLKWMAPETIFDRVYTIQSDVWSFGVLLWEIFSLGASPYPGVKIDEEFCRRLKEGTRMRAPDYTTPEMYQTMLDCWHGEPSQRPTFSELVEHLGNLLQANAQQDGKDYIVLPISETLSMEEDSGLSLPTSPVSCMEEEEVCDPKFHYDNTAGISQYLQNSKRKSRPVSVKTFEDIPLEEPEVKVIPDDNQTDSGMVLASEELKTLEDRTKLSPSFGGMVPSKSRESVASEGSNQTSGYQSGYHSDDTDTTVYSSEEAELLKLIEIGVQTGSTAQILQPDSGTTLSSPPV
Experiment: KDR AlphaScreen assay
Conditions: KDR IC50 (μM)

Recorded IC50, per entry:
In [3]: df
Out[3]:
                                   compound     measured
0  CC(C)NC(=O)c1ccc(F)c(-c2ncc(N)c(C(=O)Nc3cnccc3N3CCC[C@H](N)C3)n2)c1  10 to 25 µM
1  NC(=O)c1cccc(-c2cnc(N)c(C(=O)Nc3ccccc3N3CCC(N)CC3)n2)c1       < 1 µM
2  Nc1cc(C(F)(F)F)c(-c2ccc(N)c(C(=O)Nc3cnccc3N3CCC[C@H](N)C3)n2)cn1      > 25 µM
3  NCC1CCCN(c2ccncc2NC(=O)c2nccnc2N)C1 (centres unmarked)  10 to 25 µM
4  COc1cncc(-c2cnc(N)c(C(=O)Nc3cnccc3N3CCNCC3)n2)n1       < 1 µM

Problem: Fill in reported IC50 for this entry: Nc1cnc(-c2ccccc2F)nc1C(=O)Nc1cnccc1N1CCC[C@H](O)C1
Solution: 10 to 25 µM

Problem: Fill in reported IC50 for this entry: N[C@H]1CCCN(c2ccncc2NC(=O)c2ccnc(-c3c(F)cccc3F)n2)C1
Solution: 10 to 25 µM

Problem: Fill in reported IC50 for this entry: NC(=O)c1cccc(-c2cnc(N)c(C(=O)Nc3ccccc3N3CCCC(N)C3)n2)c1 (centres unmarked)
Solution: < 1 µM

Problem: Fill in reported IC50 for this entry: Nc1ncc(-c2ccccc2)nc1C(=O)Nc1cnccc1N1CCNCC1
Solution: < 1 µM

Problem: Fill in reported IC50 for this entry: CC(C)NC(=O)c1ccc(F)c(-c2ccc(N)c(C(=O)Nc3cnccc3N3CCCC(O)(C(F)(F)F)C3)n2)c1 (centres unmarked)
Solution: 10 to 25 µM

* * *

Target: KDR kinase (Homo sapiens, UniProt P35968)
Test: KDR AlphaScreen assay
Conditions: KDR IC50 (μM)
Attribute: IC50

Recorded IC50, per entry:
In [3]: df
Out[3]:
                                   compound     measured
0  Cc1cccc(-c2cnc(N)c(C(=O)Nc3ccccc3N3CCNCC3)n2)c1 [Example 388]       < 1 µM
1  Nc1ccc(-c2cnc(N)c(OCC(F)(F)F)n2)nc1C(=O)Nc1cnccc1N1CCC[C@H](N)C1 [Example 519]  10 to 25 µM
2  Nc1cc(F)c(-c2c(F)ccc(OCc3ccccc3)c2F)nc1C(=O)Nc1cnccc1N1CCC[C@H](N)C1 [Example 505]  10 to 25 µM

Problem: Fill in reported IC50 for this entry: Nc1ccc(C2CCCC2)nc1C(=O)Nc1cnccc1N1CCC[C@H](N)C1 [Example 644]
Solution: 10 to 25 µM

* * *

Biological target: Pim2 kinase (Homo sapiens, UniProt Q9P1W9)
Sequence (Q9P1W9 whole entry): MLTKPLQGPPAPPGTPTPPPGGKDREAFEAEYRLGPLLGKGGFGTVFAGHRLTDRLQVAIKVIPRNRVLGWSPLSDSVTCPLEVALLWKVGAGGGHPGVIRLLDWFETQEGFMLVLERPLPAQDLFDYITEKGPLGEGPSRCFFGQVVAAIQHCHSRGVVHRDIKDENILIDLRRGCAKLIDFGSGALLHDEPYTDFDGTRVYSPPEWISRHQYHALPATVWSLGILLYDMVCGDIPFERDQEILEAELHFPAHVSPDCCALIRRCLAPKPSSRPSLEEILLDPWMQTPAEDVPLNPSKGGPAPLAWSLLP
Experiment: Pim2 ATP depletion assay
Format: biochemical
Conditions: read-out: PIM2 IC50
pIC50: −log10 of the molar value.
Attribute: pIC50

Recorded pIC50, per entry:
                                   molecule  measured
0  Cc1ccnc(-c2ccc(N)c(C(=O)Nc3cnccc3N3CCC[C@H](N)C3)n2)c1 [Example 724]    > 6.00
1  CSc1nc(N)cc(-c2ccncc2NC(=O)c2nc(-c3cc(C(=O)N(C)C)ccc3F)ccc2N)n1 [Example 535]    > 6.00
2  Nc1ccc(-c2ccccn2)nc1C(=O)Nc1cnccc1N1CCC[C@H](N)C1 [Example 730]    > 6.00
3  CSc1nc(N)cc(-c2ccncc2NC(=O)c2nc(-c3c(F)ccc(OC(C)C)c3F)ccc2N)n1 [Example 536]    > 6.00

Problem: Fill in reported pIC50 for this entry: CC(=O)Nc1cccc(-c2ncc(N)c(C(=O)Nc3cnccc3N3CCC[C@H](N)C3)n2)c1 [Example 544]
Solution: > 6.00

Problem: Fill in reported pIC50 for this entry: CC(C)NC(=O)c1ccc(F)c(-c2ccc(N)c(C(=O)Nc3cnccc3N3CC[C@H](O)[C@H](N)C3)n2)c1 [Example 753]
Solution: > 6.00

* * *

Attribute: IC50
Target: Pim2 kinase (Homo sapiens, UniProt Q9P1W9)
Assay: Pim2 ATP depletion assay
Assay type: biochemical
Conditions: read-out: IC50 (μM) PIM2

Recorded IC50, per entry:
In [3]: df
Out[3]:
                                   compound  quantity_kind    measured
0  COc1cc(-c2cnc(N)c(C(=O)Nc3ccccc3N3CCNCC3)n2)cc(OC)c1OC [Example 395]           IC50     > 25 µM
1  Cc1ccc(N2CCNCC2)c(NC(=O)c2nccnc2N)c1 [Example 216]           IC50     > 25 µM
2  NCC1CCCN(c2ccncc2NC(=O)c2nccnc2N)C1 (stereo not drawn) [Example 184]           IC50  1 to 10 µM

Problem: Fill in reported IC50 for this entry: COc1ccc(-c2cnc(N)c(C(=O)Nc3cnccc3N3CCCC(N)C3)n2)cc1 (stereo not drawn) [Example 370]
Solution: < 1 µM

Problem: Fill in reported IC50 for this entry: Nc1ncc(Br)nc1C(=O)Nc1ccccc1N1CCCC(N)C1 (stereo not drawn) [Example 204]
Solution: < 1 µM

Problem: Fill in reported IC50 for this entry: Nc1ccc(-c2c(F)cccc2F)nc1C(=O)Nc1cnccc1N1C[C@@H](N)C[C@@H](F)C1 [Example 293]
Solution: < 1 µM

* * *

Biological target: Pim2 kinase (Homo sapiens, UniProt Q9P1W9)
Experiment: Pim2 ATP depletion assay;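 further: Luciferase-based luminescent readout of ATP remaining after PIM2 phosphorylates a BAD peptide, final 5 nM enzyme, 4 µM ATP, 10 µM peptide, 2.5% DMSO, run to roughly half ATP consumption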
Type: biochemical
Conditions: read-out: IC50 (μM) PIM2
quantity_kind: IC50

                                   molecule  measured
0  Nc1ccc(-c2ccc(F)cc2F)nc1C(=O)Nc1cnccc1N1CCC[C@H](N)C1    < 1 µM

Problem: Fill in reported IC50 for this entry: Nc1ncc(-c2cccc3ccccc23)nc1C(=O)Nc1ccccc1N1CCNCC1
Solution: 1 to 10 µM

Problem: Fill in reported IC50 for this entry: Nc1ccc(-c2ccncc2F)nc1C(=O)Nc1cnccc1N1CCC[C@H](N)C1
Solution: < 1 µM

Problem: Fill in reported IC50 for this entry: Nc1ncc(-c2cn[nH]c2)nc1C(=O)Nc1cnccc1N1CCCC(N)C1 (stereo not drawn)
Solution: < 1 µM

Problem: Fill in reported IC50 for this entry: Nc1nccnc1C(=O)Nc1[nH]c(=O)ncc1N1CCCC(F)C1 (stereo not drawn)
Solution: < 1 µM

Problem: Fill in reported IC50 for this entry: Nc1ccc(-c2c(F)ccc(OCc3ccccc3F)c2F)nc1C(=O)Nc1cnccc1N1CCC[C@H](N)C1
Solution: < 1 µM

Problem: Fill in reported IC50 for this entry: Cn1cccc1-c1cnc(=O)[nH]c1NC(=O)c1nccnc1N
Solution: < 1 µM

Problem: Fill in reported IC50 for this entry: Nc1nccnc1C(=O)Nc1[nH]c(=O)ncc1N1CCC(C(F)(F)F)CC1
Solution: < 1 µM

Problem: Fill in reported IC50 for this entry: Nc1nc(N)c(C(=O)Nc2[nH]c(=O)ncc2N2CCCC(N)C2)nc1Cl (stereo not drawn)
Solution: < 1 µM

Problem: Fill in reported IC50 for this entry: COc1ccc(F)c(-c2cnc(N)c(C(=O)Nc3ccccc3N3CCNCC3)n2)c1
Solution: 1 to 10 µM

Problem: Fill in reported IC50 for this entry: Nc1ncc(Br)nc1C(=O)Nc1ccccc1N1CCNCC1
Solution: 1 to 10 µM

Problem: Fill in reported IC50 for this entry: CO[C@@H]1C[C@H](N)CN(c2ccncc2NC(=O)c2nc(-c3c(F)cccc3F)ccc2N)C1
Solution: < 1 µM

Problem: Fill in reported IC50 for this entry: CN(C)C1CCN(c2ccncc2NC(=O)c2nccnc2N)CC1
Solution: 1 to 10 µM

Problem: Fill in reported IC50 for this entry: Nc1cccnc1C(=O)Nc1[nH]c(=O)ncc1N1CCCC(N)C1 (stereo not drawn)
Solution: < 1 µM

Problem: Fill in reported IC50 for this entry: Nc1ncc(-c2cccnc2)nc1C(=O)Nc1cnccc1N1CCCC(N)C1 (stereo not drawn)
Solution: < 1 µM

Problem: Fill in reported IC50 for this entry: CN(C)C(=O)c1ccc(F)c(-c2nc(C(=O)Nc3cnccc3N3CCC[C@H](N)C3)c(N)cc2F)c1
Solution: < 1 µM

Problem: Fill in reported IC50 for this entry: Cc1csc(-c2ccc(N)c(C(=O)Nc3cnccc3N3CCC[C@H](N)C3)n2)c1
Solution: < 1 µM

Problem: Fill in reported IC50 for this entry: Nc1ccc(-c2c(F)cccc2F)nc1C(=O)Nc1cnccc1N1CCCCCC1
Solution: < 1 µM

Data credit: patent US20140249135A1
